measured.on: T1, IL13RA2 Protein, Human, Recombinant (ECD)-His tag (human, UniProt Q14627 27-343)
T1 construct: extracellular domain; also called human recombinant protein extracellular domain; human IL13Ra2-His6
T1 sequence: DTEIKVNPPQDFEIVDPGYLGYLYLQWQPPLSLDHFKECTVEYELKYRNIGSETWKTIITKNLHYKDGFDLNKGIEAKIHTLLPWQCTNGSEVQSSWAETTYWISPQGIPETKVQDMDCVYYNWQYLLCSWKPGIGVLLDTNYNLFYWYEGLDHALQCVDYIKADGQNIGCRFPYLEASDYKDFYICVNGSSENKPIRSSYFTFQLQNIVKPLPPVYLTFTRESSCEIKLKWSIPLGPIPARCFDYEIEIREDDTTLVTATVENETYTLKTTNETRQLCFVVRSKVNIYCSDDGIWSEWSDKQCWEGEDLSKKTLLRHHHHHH
assay.text: BLI; biotinylated VHH captured on streptavidin biosensor, antigen 1 uM in solution
Catalogue of t½ values
Report the value in min with no unit label.

Worked examples follow.
[[record]]
binder = "IL13Ra2_2TIG4_f3 (VHH, biotinylated (site not stated), Expressed in E. coli and 6xHIS purified; also called IL13Ra2_2TIG4_f3-Biotin) VHH: QVQLQESGGGLVQPGGSLRLSCAASGRTYGMGWFRQAPGKEREFVAVGVWSSGNTYYADFARGRFTISRDNAKNTVYLQMDSLKPEDTAVYYCAAPRYSSYTTYHAAYDYWGPGTQVTVSS"
units_of_measure = "min"
recorded_number = 17

[[record]]
binder = "VH43f2 (VHH, biotinylated (site not stated), Expressed in E. coli and 6xHIS purified; also called VH43f2-Biotin; Anti-IL13Rα2 VH43) VHH: QVQLQESGGGLVQPGGSLRLSCTASGSIRGIGYMAWGRQGPGKPRELIATINSAGDTNYAESVKGRFTVSRDNAENTLYLQMNNLKSEDTAVYYCNARPGLQSYWGQGTQVTVSS"
units_of_measure = "min"
recorded_number = 12.3

[[record]]
binder = "VH36f1 (VHH, biotinylated (site not stated), Expressed in E. coli and 6xHIS purified; also called VH36f1 Biotin; Anti-IL13Rα2 VH36) VHH: QVQLQESGGGSVQPGGSLRLSCAASGINISSDVMEWFRQGPGEQRELVAHITTNSRTEYADFVKGRFTISRANAKNTLYLQMNGLKPEDTALYYCALRRGGRILWGQGTQVTVSS"
units_of_measure = "min"
recorded_number = 87

[[record]]
binder = "VH57f5 (VHH, biotinylated (site not stated), Expressed in E. coli and 6xHIS purified; also called VH57f5 Biotin; Anti-IL13Rα2 VH57) VHH: QVQLQESGGGLVQPGGSLRLSCAASGSIFNTNGMGWYRQAPGKQRERVAGISSGGNTVYAASVEGRFTISRDNAKNTGYLQMNNLKPEDTAVYYCRVAGRQDDYWGQGTQVTVSS"
units_of_measure = "min"
recorded_number = 29


Now for a further binder.
In: Recorded t½ for VH53f3 (VHH, biotinylated (site not stated), Expressed in E. coli and 6xHIS purified; also called VH53f3 Biotin; Anti-IL13Rα2 VH53) VHH: QVQLQESGGGLVQPGGSLRLSCEVSGSISSINRMAWYRQVPGKEREMVAQITYGDTIKYYGSAKGRFTISKDSAKNAVYLQMNSLKPEDTAVYRCNIVGVLTTGHYENSFWGQGTQVTVSS , please?
Out: 98

Each recorded value in this set is attributed to patent US20250090663A1.
